meta.source: patent US20260250291A1

target: FGFR2 (Homo sapiens); construct: purchased Carna; assay: FGFR biochemical assay (LanthaScreen TR-FRET), FGFR2; conditions: enzyme pre-incubation 10 minutes (for Example 1); ATP 22 μM; FGFR2 0.01 nM
Sequence (P21802 22-821): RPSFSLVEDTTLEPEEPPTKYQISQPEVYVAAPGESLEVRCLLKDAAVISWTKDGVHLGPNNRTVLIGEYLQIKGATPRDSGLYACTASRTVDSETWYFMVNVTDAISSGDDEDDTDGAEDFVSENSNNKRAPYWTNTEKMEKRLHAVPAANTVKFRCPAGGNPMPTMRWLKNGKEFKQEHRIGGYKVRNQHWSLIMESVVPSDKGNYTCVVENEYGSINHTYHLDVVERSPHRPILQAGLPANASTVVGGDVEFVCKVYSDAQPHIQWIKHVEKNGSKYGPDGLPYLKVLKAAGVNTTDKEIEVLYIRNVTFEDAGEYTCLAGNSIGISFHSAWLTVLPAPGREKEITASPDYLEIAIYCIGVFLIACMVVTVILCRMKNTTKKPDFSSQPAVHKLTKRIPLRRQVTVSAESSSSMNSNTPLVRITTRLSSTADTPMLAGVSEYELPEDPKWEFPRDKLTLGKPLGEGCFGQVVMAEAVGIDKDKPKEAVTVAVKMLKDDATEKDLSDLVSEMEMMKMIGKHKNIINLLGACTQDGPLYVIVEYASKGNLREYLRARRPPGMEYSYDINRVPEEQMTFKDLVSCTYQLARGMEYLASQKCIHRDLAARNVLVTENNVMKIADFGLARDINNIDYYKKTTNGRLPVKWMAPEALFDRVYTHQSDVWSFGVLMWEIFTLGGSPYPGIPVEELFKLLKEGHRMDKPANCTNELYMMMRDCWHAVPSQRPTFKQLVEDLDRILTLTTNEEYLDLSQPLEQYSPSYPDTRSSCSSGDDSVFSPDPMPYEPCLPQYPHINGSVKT
pIC50: −log10 of the molar value.
READOUT: pIC50

>>> recorded_result("C=CC(=O)Nc1ccc(-c2c(-c3ccc(Oc4cccc(C)n4)cc3)c(C(N)=O)n3cccnc23)cc1 [Example 1]")
"> 8.00"

* * *

system: SNU-16 (FGFR2); assay: Cellular proliferation assay (CellTiter-Glo), SNU-16; format: cell-based; details: Homo sapiens, SNU-16 cells, 72 hours
Quick reference for IC50 among some compounds
READOUT: IC50

>>> recorded_result("C=C(F)C(=O)Nc1ccc(-c2c(-c3ccc(Oc4nccc(C)n4)c(F)c3)c(C(N)=O)n3cc(N4CCOCC4)cnc23)cc1")
"< 10 nM"
>>> recorded_result("CC#CC(=O)Nc1ccc(-c2c(-c3ccc(Oc4nccc(C)n4)c(F)c3)c(C(N)=O)n3cc(C)cnc23)cc1")
"< 10 nM"
>>> recorded_result("Cc1cnc2c(-c3ccc(NC(=O)/C=C/CN4CC(O)C4)cc3)c(-c3ccc(Oc4nccc(C)n4)c(F)c3)c(C(N)=O)n2c1")
"10 to 100 nM"
